- assay_system: recombinant human farnesyl transferase (Homo sapiens, UniProt P49354+P49356)
- test_description: In vitro inhibition of ras farnesyl transferase
- run_conditions: read-out: ID50, Inhibition of RAS farnesylation (concentration which gives 50% inhibition of FTase)
recorded_metric: pIC50
# pIC50 is unitless: minus log10 of the molar concentration; print number only

Please review the following examples before continuing.
CC[C@H](C)[C@@H](/C=C/[C@H](C(=O)N[C@@H](CCSC)C(=O)O)C(C)C)NC[C@@H](N)CS; 7.70
CCC[C@H](/C=C/[C@@H](NC[C@@H](N)CS)[C@@H](C)CC)C(=O)N[C@@H](CCO)C(=O)O; 8.40
CC(C)[C@H](/C=C/[C@@H](NC[C@@H](N)CS)C(C)C)C(=O)N[C@@H](CCO)C(=O)O; 8.30

Given item `CCCC[C@H](/C=C/[C@@H](NC[C@@H](N)CS)[C@@H](C)CC)C(=O)N[C@@H](CCO)C(=O)O` , the value recorded as its pIC50 is 8.82
